B1: LINE1-full (parent)
chain: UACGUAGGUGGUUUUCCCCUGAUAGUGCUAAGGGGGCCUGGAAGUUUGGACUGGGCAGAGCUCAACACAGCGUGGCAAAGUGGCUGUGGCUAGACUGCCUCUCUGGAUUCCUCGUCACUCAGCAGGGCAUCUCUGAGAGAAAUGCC

# Variants of: B1
# assay explanation: self-cleavage, relative activity (ratio to wild type); higher = more cleavage; in vitro, sequencing; the parent is a self-cleaving ribozyme
Label condition met when self-cleavage is at or above 1; otherwise label condition not met.

mutation id | label
U46C G122A | condition met
A50G U96A | condition not met

Data request: Does self-cleavage meet or surpass 1 for A24G A107U ?
Data returned: condition met

Data request: Does self-cleavage meet or surpass 1 for U20C U132G ?
Data returned: condition not met
